- TEST_METHOD_NOTES: yeast display, Sf9 membrane polyspecificity reagent, FACS + sequencing; frameworks hold sequencing errors
MEASURED_ENDPOINT: polyreactivity (PSR sort gate)

Examples with their reported polyreactivity (PSR sort gate) follow.
[[record]]
residue_codes = "QVQLVESGGGLVQAGGSLRLSCAASGIIFFRNAMGWYRQAPGNERELVATITSGVSTNYADSVKGRFTISRDNAKNTVYLQKNSLKPEDTAVYYCATEGFPFYDFDYWGQGTQVTVSS"
meas_value = "high polyreactivity"

[[record]]
residue_codes = "QVQLVESGGGLVQAGGSLRLSCAASGRIFYVNAMGWYRQAPGKERELVATINYTDGSTYYADSVKGRFTISRDKAKNTVYLQMNSMKPEDTAVYYCAADAVWYDFVAYWTTYYYWGPGTQVTVSS"
meas_value = "low polyreactivity"

[[record]]
residue_codes = "QVQLVESGGGLVQAGGSLRLSCAASGRTFWLYAMGWYRQAPGKEREFVASISSSGDSTYYADSVKGRFTISRDNAKNTVYLQMNSLKPEDTAVYYCAARPSRRYLRNGLDYWGQGTQVTVSS"
meas_value = "high polyreactivity"

[[record]]
residue_codes = "QVQLVESGGGLVQAGGSLRLSCAASGFTFKYYAMGWYRQAPGKERELVAVISSSGGSTYYADSVKGRFTISRDNAKNTVYLQMNSLKPEDTAVYYCAAELVYRYYVKDADDYWGQGTQVTVSS"
meas_value = "low polyreactivity"

[[record]]
residue_codes = "QVQLVESAGGLVQAGGSLRLSCAASGSIIADNAMGWDRQSPGTERELVAAITGGDSTYYADSVKGRFTISRDNAKNTVYLQMNSLKPEDTAVYYCNADRFRGRTVDGDYWGQGTQVTVSS"
meas_value = "low polyreactivity"


Q: Look up polyreactivity (PSR sort gate): QVQLVESGGGLVQAGGSLRLSCAASGRTFAPYAMGWYRQAPGKERELVAAISQRGGSTYYADSVKGRFTISRDNAKNTVYLQMNSLKPEDTAIYYCAATKYFYRLSSAFSFGTYGYWGQGTQVTVSS
A: low polyreactivity

Q: QVQLVESGGGLVQAGGSLRLSCAASGNIFKVNTMGWYRQAPGKERELVAAINRSGGRPYYADSVKGSFTISRDNAKNTVYLQMNSLKPEDTAVYYCATRVHKSTHGYDYWGQGTQVTVSS , same question.
A: high polyreactivity

Q: QVQLVESGGGLVQAGGSLRLSCAASGFTFWRNAMGWYRQAPGKERELVAAISASGGSTYYADSVKGRFTISRDYAKNTVYLQKNSLKPEDTAVYYCAADTQGFYRYDYWGQGTQVTVSS , same question.
A: low polyreactivity

Q: QVQLVESGGGLVQAGGSLRLSCVPPDLPSTLNVMGWYRQAPGKERELVAAISQRGGSTYYADSVKGRFTISRDNAKNTVYLEMNSLKPEDTAVYYCAAGPGDSGDDYWGQGTQVTVSS , same question.
A: low polyreactivity

Q: QVQLVESGGGLVQAGASLRLSCAASGHIFDSYAMGWYRQAPGKERELVAAITSGGSTYYADSVKGRFTISRDYAKNTVYLQMNSLKSEDTAVYYCATELGAAGDDSWGQGTQVTVSS , same question.
A: low polyreactivity

Q: QVQLVESGGGLVQAGGSLRLSCAASGRTLYLYAMGWYRQAPGKERELVAAIDWRGTSTYYADSVKGRFTISRDNAKNTVYLQMNSLKPEDTAVYYCNAEGRWSSFTQRMDYWGQGTQVTVSS , same question.
A: low polyreactivity

Q: QVQLVESGGGLVQAGGSLRLSCAASGSIFSRYAMGWYRQAPGKESELVAASRWTDSSTYYADSVKGRFTISRDNAKNTVYLQMNSLKPEDTAVYYCAKVYERGSNKVDYWGQGTQVTVSS , same question.
A: low polyreactivity

Q: QVQLVESVGGLDQAGGSLRFICASSAHTISSYAMGWYRQAPGKERELVAAISVSATRTYYADSVKGRFTISRDNAKNTVYLQMSSLNPEDPAVYYFAARPVQFTYGYWGQGTQVTVSS , same question.
A: high polyreactivity

Q: QVQLVESGGGLVQAGGSLRLRCAASGSIFNSYAMGWYRQAPGKERELVAAISIRGTRTYYADSVKGRFTISRDNAKNTVYLQMNSLKPEDTAVYYCAADASYTEGMDYWGQGTQVTVSS , same question.
A: high polyreactivity

Q: QVQLVESGGGLVQAGGSLRLSCAASGPIFKRNDMGWYRQSHGKERELVAAISGSGGRTYYADSLKGRFTISRDNAKNTVYLQMNSLKPEDTAVYYCNAGGSYYARGMDYWGQGTQVTVSS , same question.
A: high polyreactivity

Q: QVQLVESGGGLVQAGGSLRLSCAASGSTFRYYGMGWYRQAPGKERELVAAISNGDSTNYADSVKGRFTISRDNAKNTVYLQMNSLKPEDTAVYYCATERYSYRVYGGITTFEYWGQGSQVTVSS , same question.
A: high polyreactivity

Q: QVQLVESGGGLVQAVGSLRLICAPSGSIFGTNAMGWYRQAPGKERELVATISYGDGSTYYADSVKGRFTISRDNAKNTVYLQMNSLKPEDTAVYYCNTGVYSSGGPLDYWGQGTQVTVSS , same question.
A: low polyreactivity

Q: QVQLVESGGGLVQAGGSLRLSCAASGSTFTNYAMGWYRQAPGKERELVAAINSGGSTHYADSVKGRFTISRDNAKNTVYLQMNSLKPEDTAVYYCAADPSALVYYWRWLGYDYWGQGTQVTVSS , same question.
A: high polyreactivity

Q: QVQLVESGGGLVQAGGSLRLSCAASGRTFLNNAMGWYRQAPGKERELVAAITKSGGSTYYADSVKGRFTISRDNAKNTVYLQMNSLKPEDTAVYYCAAARRYYTYYREDYYYWGQGTQVTVSS , same question.
A: high polyreactivity

Q: QVQLVESGGGLVQAGGSLRLSCAASGRIFYFYAMGGYRQAPGKERELVAAISRRGGTTNYADSVKGRFTISRDNAKNTVYLQMNSLKPEDTAVYYCAADYQSVGGAEYDYWGQGTQVTVSS , same question.
A: high polyreactivity

Q: QVQLVESGGGLVQAGGSLRLSCAASGFTFGNNAMGWYRQAPGKERELVAGISRTGGRTYYADSVKGRYTISRDNAKNTVYFQMNSLKPEDTGVYYCNADSTLYTGYDYWGQGTQVTVSS , same question.
A: high polyreactivity
